Tested on: MS2 coat protein
Assay: apparent KD of MS2 coat protein; designed switch direction (-1 OFF switch, 1 ON switch): -1; higher = weaker reporter binding
Settings: input ligand: none
Class field: derived from apparent KD of MS2 coat protein; ranges lo (below 20 nM), mid (20 nM to below 40 nM), hi (40 nM or more)

Q) Class? Entry: GGUCAGAUGGUAGGAUAUCCAUAUCGAGUGACCCUUUUAUAACAUGAGGAUCACCCAUGUCGGUGGGAGAAGGGCCGUACGGCG [salish99_ExNG02_R04_018] (Eterna round: R96, puzzle: Exclusion NG 2)
A) hi

Q) Class? Entry: ACAUGAGGAUCACCCAUGUCAGGUUGGUCCUCUCCGGCUGUUGAGGAUAUAGUCCGGUAUCCGCGCUAGAAGGUGAGGGCUGGC [Aenatbe mod 15] (Eterna round: R96, puzzle: Exclusion NG 3)
A) mid

Q) Class? Entry: AUAUUGUGAGGAUAUGAAGUUAGUAUCGAAAGAUACUAAGUUCAGAAGGCACAUGAGGAUCACCCAUGUUUCUC [Long static hairpin v4] (Eterna round: R97, puzzle: Exclusion 4)
A) hi

Q) Class? Entry: CUAAAUCAUGUAGGAUAUGCGUGGCAAAGCUAUGCAGAAGGACAUGAGGAUCACCCAUGUCAUUCCGUCUGGGAACAGACGGGA [Mat - Exclusion NG 1 - Mod of JL - D52] (Eterna round: R96, puzzle: Exclusion NG 1)
A) mid

Q) Class? Entry: GGACCACAUGAGGAUCACCCAUGUCAGGAUAUGACGGCGUCGGCGAAAGCGGAGGCGGUCAGAAGGGACGGAAA [AK-MS2ROC-r4-exclusion1-9.0] (Eterna round: R97, puzzle: Exclusion 1)
A) mid

Q) Class? Entry: GGUCGUCAAGUCAGGAUAUCGUAUAGUCGAUGUAACGAGAAGGGACAUGAGGAUCACCCAUGUCGUCUCAUCAG [Ex4 #25] (Eterna round: R97, puzzle: Brourd's mod of Exclusion 4)
A) lo

Q) Class? Entry: CGUCAGUGAGGAUAUGGUAACAUUUACAUGAGGAUCACCCAUGUUUCAUGGGACUAAAGACUAGAAGGCACUGACG [JR_Ex5_Sub031] (Eterna round: R97, puzzle: Exclusion 5)
A) mid

Q) Class? Entry: AACGUGUAAGGAUAUCUGCUUAUGCUCGGCAAUGCACCGAUAGAGAAGGUACAUGAGGAUCACCCAUGUUCCAA [EX4 A.16] (Eterna round: R97, puzzle: Exclusion 4)
A) lo

Q) Class? Entry: AGAUAGUGGUGAGGAUAUGAGAAUAGAAAGAAAUCAGAAGGCACACAUGAGGAUCACCCAUGUGAGUUCUUGAGAUUACAUGGU [Prohibition 42 - Jieux - Exclusion NG 1] (Eterna round: R96, puzzle: Exclusion NG 1)
A) lo

Q) Class? Entry: CCUCUACAUGAGGAUCACCCAUGUGAGGAUAUCCUGCGAGGAUCAAAAGAUCCUCGUGGGAGAAGGCAUAUGUA [Omei Ex1 A2] (Eterna round: R97, puzzle: Exclusion 1)
A) mid

Q) Class? Entry: ACUUAUUGAGGAUAUACAUAAAUUUACAUGAGGAUCACCCAUGUUCUUCUAUGUAUAUAUGUAGAAGGCAGAAGAG [Mat - Exclusion 5 - JL Mod - D33] (Eterna round: R97, puzzle: Exclusion 5)
A) lo

Q) Class? Entry: GGCAAACAUGAGGAUCACCCAUGUCAGGAUAUUAGGCGAUCGUCGAAAGACGAUAGCCUGAGAAGGGACAUGCC [Eli x1 4.16] (Eterna round: R97, puzzle: Exclusion 1)
A) hi

Q) Class? Entry: ACGCAUUGCCAAAGGUAGUGCGUUACAUGAGGAUCACCCAUGUAGGAUAUGGUAGGCAAAGCUUACCAGAAGGACAUGAUAAUU [Mat - Exclusion NG 3 - Mod of JL - D6] (Eterna round: R96, puzzle: Exclusion NG 3)
A) hi

Q) Class? Entry: AGCUAGAUAGGAUAUGCCCGGGAUAACAUGAGGAUCACCCAUGUGGCCGAAUCAAGUCCAGCAGAAGGGUUUGGGA [Mod of ViennaUCT 11 - Jieux - Exclusion 5] (Eterna round: R97, puzzle: Exclusion 5)
A) mid

Q) Class? Entry: UGGACACCAGUAGGAUAUGUAGGAUAUGUUGUUGAGGAUCACCCAACAAAUUAAACGACAGAAGGACAGAAGGACUAUUAUCCU [pwkr exNG2 2xFMN 1xF5.1] (Eterna round: R96, puzzle: Exclusion NG 2)
A) hi

Q) Class? Entry: UUUAAUUGUCAGAUGGGUGACAUGAGGAUCACCCAUGUCACAAGCUUUUUGCUCGUCUUAUAAUUAACCCAUCUGAC [Stov1/11-A1] (Eterna round: R97, puzzle: Sensor, turn-off variant 1)
A) lo

Q) Class? Entry: CGCGGAUGUAUAUGUCCGCACAUGAGGAUCACCCAUGUAAUAUAAGAUGAUAUUAAACAAAUUUUUGCUUGUCAGUU [Eternabot (L1) Solution 37] (Eterna round: R97, puzzle: Sensor, turn-off variant 1)
A) mid
